target: UniProt:H9EQH8; assay: PET imaging studies in rhesus monkeys; conditions: Thalamus; from VT, centrum semiovale as reference region
Sequence (H9EQH8 1-742): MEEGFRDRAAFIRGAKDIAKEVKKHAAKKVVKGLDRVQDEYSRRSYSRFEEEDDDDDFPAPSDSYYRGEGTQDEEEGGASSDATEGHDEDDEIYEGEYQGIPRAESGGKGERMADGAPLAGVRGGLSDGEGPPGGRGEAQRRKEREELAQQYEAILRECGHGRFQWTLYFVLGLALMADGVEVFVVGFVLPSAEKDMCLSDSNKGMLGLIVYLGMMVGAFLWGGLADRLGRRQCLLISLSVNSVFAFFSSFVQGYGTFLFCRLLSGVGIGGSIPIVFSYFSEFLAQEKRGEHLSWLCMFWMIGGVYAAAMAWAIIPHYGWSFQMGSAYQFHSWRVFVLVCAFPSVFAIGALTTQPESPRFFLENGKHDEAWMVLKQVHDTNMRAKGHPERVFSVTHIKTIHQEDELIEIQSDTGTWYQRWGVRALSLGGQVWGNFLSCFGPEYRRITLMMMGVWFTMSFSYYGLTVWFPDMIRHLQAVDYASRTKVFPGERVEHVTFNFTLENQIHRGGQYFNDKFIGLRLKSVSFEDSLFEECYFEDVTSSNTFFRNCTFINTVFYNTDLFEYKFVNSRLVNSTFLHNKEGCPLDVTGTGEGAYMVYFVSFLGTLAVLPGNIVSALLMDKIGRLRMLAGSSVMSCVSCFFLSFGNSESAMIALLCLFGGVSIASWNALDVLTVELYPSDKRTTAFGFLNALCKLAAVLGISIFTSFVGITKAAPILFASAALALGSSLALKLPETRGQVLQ
Hi there, I'd appreciate the recorded Binding potential (BPND) for every entry that follows.

Study these solved cases before continuing.
O=C1CC(c2cccc(F)c2)CN1Cc1ccncc1 (stereo not shown) [^18F-12]: 0.42
Cc1cnccc1CN1CC(c2cc(F)c(F)c(F)c2)CC1=O (stereo not shown) [^18F-3]: 2.53 ± 1.18
Cc1cnccc1CN1CC(c2ccc(F)c(F)c2)CC1=O (stereo not shown) [^18F-4]: 1.65

// for each compound in input: emit Binding potential (BPND)
1. O=C1CC(c2cc(F)c(F)c(F)c2)CN1Cc1ccncc1F (stereo not shown) [^18F-10]
2. Cc1cnccc1CN1CC(c2cc(F)c(F)c(F)c2)CC1=O (single isomer, unassigned) [^11C-3]
3. Cc1cnccc1CN1CC(c2cccc(F)c2)CC1=O (stereo not shown) [^18F-11]
4. Cc1cnccc1CN1CC(c2cc(F)cc(F)c2)CC1=O (stereo not shown) [^18F-5]

Given back:
1. 0.19
2. 2.03 ± 0.62
3. 2.18 ± 0.77
4. 3.08 ± 0.96
